Read-out: Interleukin 6 (IL6), IL6 (gene 3569)
PROTOCOL DESCRIPTION: LTEA_HepaRG_IL6: Life Technologies and Expression Analysis (LTEA) Assay for Interleukin 6 (IL6) using HepaRG (AID 2283509)
EXPERIMENTAL PARAMETERS: mRNA level, 48 h; actives raise or lower the signal
Description: LTEA_HepaRG is a cell based, multiplexed-readout assay that uses HepaRG, a human liver cell line, with measurements taken at 48 hours after chemical dosing on a 96-well plate.LTEA_HepaRG_IL6 is one of 102 assay component(s) measured in the LTEA HepaRG cell culture assay. It is a marker of Inflammation.Data from the assay component LTEA_HepaRG_IL6 was analyzed into 1 endpoint. […]
The source made the active and inactive calls. Rule for the calls: active = hit-call score of the fitted dose curve at least 0.9, where 1 is the maximum; inactive = score below 0.9.
In this exercise, the only acceptable responses are 1.0 (active), 0.0 (inactive)

Below, 2 compounds whose answers are already recorded.
{"STRUCTURE SMILES": "C[C@@H]1C[C@@H]([C@H](O)CC2CC(=O)NC(=O)C2)C(=O)[C@@H](C)C1", "ASSIGNED CATEGORY": 1.0}
{"STRUCTURE SMILES": "Cc1ccccc1N", "ASSIGNED CATEGORY": 0.0}

Now turn to the next compound.
Ask | Kindly provide the recorded test outcome for the following compound: O=c1[nH]c(=O)[nH]c(=O)[nH]1
Reply | 0.0

###

ASSAYED TARGET: human Androgen Receptor (AR), AR (gene 367) (UniProt P10275)
Sequence (P10275 whole entry, looked up): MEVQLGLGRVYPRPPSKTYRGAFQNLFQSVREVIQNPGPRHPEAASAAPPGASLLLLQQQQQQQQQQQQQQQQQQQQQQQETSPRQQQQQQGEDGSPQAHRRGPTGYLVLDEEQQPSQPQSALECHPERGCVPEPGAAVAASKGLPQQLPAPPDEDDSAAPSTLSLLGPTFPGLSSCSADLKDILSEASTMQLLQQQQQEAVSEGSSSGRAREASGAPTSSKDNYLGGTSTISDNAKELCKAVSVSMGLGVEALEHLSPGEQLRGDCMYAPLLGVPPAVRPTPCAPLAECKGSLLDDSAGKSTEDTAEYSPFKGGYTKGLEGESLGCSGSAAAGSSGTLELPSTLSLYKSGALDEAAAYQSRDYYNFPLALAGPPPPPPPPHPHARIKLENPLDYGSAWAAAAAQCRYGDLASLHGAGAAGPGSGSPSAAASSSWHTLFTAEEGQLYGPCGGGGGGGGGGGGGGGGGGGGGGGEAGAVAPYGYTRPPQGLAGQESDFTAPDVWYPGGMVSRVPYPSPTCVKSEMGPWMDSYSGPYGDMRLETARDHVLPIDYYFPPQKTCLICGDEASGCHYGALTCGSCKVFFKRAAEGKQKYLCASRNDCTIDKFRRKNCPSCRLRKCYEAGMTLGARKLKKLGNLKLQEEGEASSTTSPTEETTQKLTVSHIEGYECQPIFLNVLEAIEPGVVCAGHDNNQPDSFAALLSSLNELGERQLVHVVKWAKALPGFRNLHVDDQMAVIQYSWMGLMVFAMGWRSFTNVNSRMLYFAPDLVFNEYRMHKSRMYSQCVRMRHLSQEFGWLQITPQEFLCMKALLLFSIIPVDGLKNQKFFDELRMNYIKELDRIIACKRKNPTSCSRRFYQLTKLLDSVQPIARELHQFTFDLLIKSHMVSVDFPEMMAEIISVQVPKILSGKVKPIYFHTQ
PROTOCOL DESCRIPTION: NVS_NR_hAR: NovaScreen (NVS) Nuclear Receptor Binding Assay for human Androgen Receptor (AR) (AID 2283332)
Experimental: NVS_NR_hAR is a biochemical, single-readout assay that uses extracted gene-proteins from LnCAP in a cell-free assay. Measurements were taken 20 hours after chemical dosing in a 96-well plate.NVS_NR_hAR is one of one assay component(s) measured or calculated from the NVS_NR_hAR assay. […] This assay endpoint, NVS_NR_hAR, was analyzed in the positive analysis fitting direction relative to DMSO as the negative control and baseline of activity. […]
Results filed as inconclusive are left out. Activity calls are given as the source filed them. Rule for the calls: active = hit-call score of the fitted dose curve at least 0.9, where 1 is the maximum; inconclusive = response in the unintended direction; inactive = score below 0.9.
In this exercise, the only acceptable responses are yes (1) = active, no (0) = inactive

{"STRUCTURE SMILES": "COP(=S)(OC)Oc1ccc(Sc2ccc(OP(=S)(OC)OC)cc2)cc1", "ASSIGNED CATEGORY": "yes (1)"}
{"STRUCTURE SMILES": "CC(=O)[O][Hg][c]1ccccc1", "ASSIGNED CATEGORY": "yes (1)"}
{"STRUCTURE SMILES": "Cl/C=C\\C[N+]12CN3CN(CN(C3)C1)C2", "ASSIGNED CATEGORY": "no (0)"}

Now turn to the next compound.
Ask | Kindly provide the recorded test outcome for the following compound: N#CCCO
Reply | no (0)

###

Read-out: Matrix Metallopeptidase 1 (MMP1), MMP1 (gene 4312)
PROTOCOL DESCRIPTION: BSK_BE3C_MMP1: BioMAP Diversity Plus: BE3C Assay for Matrix Metallopeptidase 1 (MMP1) Biomarker Activity (AID 2283024)
EXPERIMENTAL PARAMETERS: primary human bronchial epithelial cells; actives raise or lower the signal
Active and inactive are the calls of the source. How the source made its calls: active means hit-call score of the fitted dose curve at least 0.9, where 1 is the maximum; inactive means score below 0.9.
In this exercise, the only acceptable responses are active, inactive

Below, 3 compounds whose answers are already recorded.
{"COMPOUND": "C[C@]12CCC(=O)C[C@@H]1CC[C@@H]1[C@@H]2CC[C@]2(C)[C@@H](O)CC[C@@H]12", "ASSIGNED CATEGORY": "inactive"}
{"COMPOUND": "ClC1(Cl)C2(Cl)C3(Cl)C4(Cl)C(Cl)(Cl)C5(Cl)C3(Cl)C1(Cl)C5(Cl)C24Cl (stereo unspecified)", "ASSIGNED CATEGORY": "inactive"}
{"COMPOUND": "ClCC(Cl)CCl", "ASSIGNED CATEGORY": "inactive"}

Ask | Kindly provide the recorded test outcome for the following compound: O=C1C2(Cl)C3(Cl)C4(Cl)C(Cl)(Cl)C5(Cl)C3(Cl)C1(Cl)C5(Cl)C24Cl (stereo unspecified)
Reply | active

Ask | And then OCc1ccco1 , what is it?
Reply | inactive

Ask | And then COP(=S)(OC)Oc1ccc(S(=O)(=O)N(C)C)cc1 , what is it?
Reply | inactive

###

PROTOCOL DESCRIPTION: ATG_M_06_TRANS: Attagene TRANS-FACTORIAL HepG2 Assay for M06 Transcription Factor (Internal Marker) (AID 2282983);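 note: reporter transcript level by RT-PCR then capillary electrophoresis fluorescence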
EXPERIMENTAL PARAMETERS: HepG2 Attagene TRANS M06 internal marker reporter
Results filed as inconclusive are left out. The source made the active and inactive calls. How the source made its calls: active means hit-call score of the fitted dose curve at least 0.9, where 1 is the maximum; inconclusive means response in the unintended direction; inactive means score below 0.9.
RECORDED METRIC: outcome

// worked examples, outcome included
{"COMPOUND": "NNC(=S)NN", "RECORDED METRIC": "outcome", "OBSERVED RESULT": "inactive"}
{"COMPOUND": "C=CC(=O)N(C)C", "RECORDED METRIC": "outcome", "OBSERVED RESULT": "inactive"}
{"COMPOUND": "ClC(Cl)=C(Cl)C(Cl)=C(Cl)Cl", "RECORDED METRIC": "outcome", "OBSERVED RESULT": "inactive"}
{"COMPOUND": "C[C@]12CC[C@H](O)CC1=CC[C@@H]1[C@@H]2CC[C@]2(C)C(=O)CC[C@@H]12", "RECORDED METRIC": "outcome", "OBSERVED RESULT": "inactive"}
{"COMPOUND": "COc1cccc(C=O)c1", "RECORDED METRIC": "outcome", "OBSERVED RESULT": "inactive"}

Report outcome for each item below.
1. ClC1(Cl)C2(Cl)C3(Cl)C4(Cl)C(Cl)(Cl)C5(Cl)C3(Cl)C1(Cl)C5(Cl)C24Cl (configuration not stated)
2. CC1(C)CCC(Cc2ccc(Cl)cc2)C1(O)Cn1cncn1 (configuration not stated)
3. CN(C)N=O

Reply |
1. inactive
2. inactive
3. inactive

###

Read-out: CD69, CD69 (gene 969)
PROTOCOL DESCRIPTION: BSK_SAg_CD69: BioMAP Diversity Plus: SAg Assay for CD69 Biomarker Activity (AID 2283089)
EXPERIMENTAL PARAMETERS: primary human HUVEC with PBMC; actives raise or lower the signal
The source made the active and inactive calls. Rule for the calls: active = hit-call score of the fitted dose curve at least 0.9, where 1 is the maximum; inactive = score below 0.9.
In this exercise, the only acceptable responses are active, inactive

Ask | Kindly provide the recorded test outcome for the following compound: COP(=S)(OC)Oc1ccc(Sc2ccc(OP(=S)(OC)OC)cc2)cc1
Reply | active

Ask | And then NC(=O)O , what is it?
Reply | inactive

Ask | And then CCC(=O)C(CC(C)N(C)C)(c1ccccc1)c1ccccc1 (stereo not given) , what is it?
Reply | inactive

Ask | And then C[C@]12CCC(=O)C[C@@H]1CC[C@@H]1[C@@H]2CC[C@]2(C)[C@@H](O)CC[C@@H]12 , what is it?
Reply | inactive

Ask | And then CCSC(C)CC1CC(=O)C(C(CC)=NOC/C=C/Cl)=C(O)C1 (stereo not given) , what is it?
Reply | inactive

Ask | And then O=Cc1cccc(Oc2ccccc2)c1 , what is it?
Reply | inactive

Ask | And then O=[N+]([O-])c1ccc2c3c(cccc13)CC2 , what is it?
Reply | inactive

Ask | And then CC1(C)Cc2cccc(O)c2O1 , what is it?
Reply | inactive

Ask | And then CN(C)N=O , what is it?
Reply | inactive

Ask | And then Oc1c(I)cc(I)cc1I , what is it?
Reply | active

Ask | And then Nc1ncc([N+](=O)[O-])s1 , what is it?
Reply | inactive

Ask | And then CC(C)(C)c1cc(O)ccc1O , what is it?
Reply | active

###

ASSAYED TARGET: Cellular tumor antigen p53 (Homo sapiens)
PROTOCOL DESCRIPTION: TOX21_p53_BLA_p5_ratio: Tox21 HCT-116 p53 Agonism Beta-lactamase Assay, Ratio, Phase 5 (AID 2283599)
Inconclusive results are not listed. The source made the active and inactive calls. Rule for the calls: active = hit-call score of the fitted dose curve at least 0.9, where 1 is the maximum; inconclusive = response in the unintended direction; inactive = score below 0.9.
RECORDED METRIC: AC50

// worked examples, AC50 included
{"MOLECULE": "COc1cc(OC)nc(NC(=O)NS(=O)(=O)c2ncccc2C(=O)N(C)C)n1", "AC50": "inactive"}
{"MOLECULE": "O=C(OC1CCCCC1)c1ccccc1C(=O)OC1CCCCC1", "AC50": "inactive"}
{"MOLECULE": "CC12CC1(C)C(=O)N(c1cc(Cl)cc(Cl)c1)C2=O (configuration not stated)", "AC50": "inactive"}
{"MOLECULE": "CNC(=O)O/N=C/C(C)(C)S(C)=O (configuration not stated)", "AC50": "inactive"}
{"MOLECULE": "NNC(=S)NN", "AC50": "inactive"}
{"MOLECULE": "Nc1ccc(N=Nc2ccc(-c3ccc(N=Nc4c(S(=O)(=O)O)cc5cc(S(=O)(=O)O)c(N=Nc6ccccc6)c(O)c5c4N)cc3)cc2)c(N)c1", "AC50": "inactive"}
{"MOLECULE": "Nc1cccc(Cl)c1", "AC50": "inactive"}
{"MOLECULE": "CC(C)C1CCC(Cc2ccc(Cl)cc2)C1(O)Cn1cncn1 (configuration not stated)", "AC50": "82.8 µM (active)"}
{"MOLECULE": "COP(=S)(OC)Oc1ccc(S(=O)(=O)N(C)C)cc1", "AC50": "inactive"}
{"MOLECULE": "O=[N+]([O-])c1ccc2c3c(cccc13)CC2", "AC50": "inactive"}

Report AC50 for each item below.
1. CC(C)c1cccc(C(C)C)c1O
2. Clc1nc(Cl)nc(Cl)n1

Reply |
1: inactive; 2: inactive
